Test system: SN12C renal
Experiment: NCI-60 one-dose screen, 48 h
Conditions: 10 µM
Method: Growth inhibition of the SN12C human tumor cell line is measured as a screen for anti-cancer activity. Cells are grown in 96 well plates and exposed to the test compound for 48 hours. Compounds are tested at a single concentration, which is 10^-5 M for most compounds. The reported endpoint is percent growth (GI% or GIPRCNT), where numbers from 0 - 100% represent growth inhibition, and numbers from -100% - 0 represent cell death. For example, a value of 40 represents 60% growth inhibition. […]
This is part of a sample that, as a whole, favours compounds with a hit. Of some 83,000 tested, about 20% had one in any assay. Activity calls are given as the source filed them. How the source made its calls: active means growth percent below 10; inactive means the rest.
Select the matching outcome among active, inactive

CNCCCNCCCN1C(=O)c2ccc3c4c(ccc(c24)C1=O)C(=O)N(CCCNCc1ccccc1OC)C3=O | active
CCc1ccc(-c2nnc(COc3ccc(-c4nc5ccccc5[nH]4)cc3OC)o2)cc1 | inactive
O=[N+]([O-])c1ccc(-c2nc(-c3ccccc3)c(-c3ccccc3)n2-c2ccccc2)cc1 | inactive
COc1ccc(-c2nc3sc(-c4ccccc4)c(-c4ccccc4)n3c2/C=C/c2ccc(F)cc2)cc1 | inactive

// switching to the query molecule
What did this assay record as the result for `CC(C)c1ncc(CO)n1Cc1c(Cl)cccc1Cl` ?
inactive
